The entries below come with measured log10(EC50) values attached.
- TEST_TARGET: WT human STING isoform (Homo sapiens (Human), UniProt Q86WV6, H232R)
- Sequence (Q86WV6 whole entry H232R, canonical isoform): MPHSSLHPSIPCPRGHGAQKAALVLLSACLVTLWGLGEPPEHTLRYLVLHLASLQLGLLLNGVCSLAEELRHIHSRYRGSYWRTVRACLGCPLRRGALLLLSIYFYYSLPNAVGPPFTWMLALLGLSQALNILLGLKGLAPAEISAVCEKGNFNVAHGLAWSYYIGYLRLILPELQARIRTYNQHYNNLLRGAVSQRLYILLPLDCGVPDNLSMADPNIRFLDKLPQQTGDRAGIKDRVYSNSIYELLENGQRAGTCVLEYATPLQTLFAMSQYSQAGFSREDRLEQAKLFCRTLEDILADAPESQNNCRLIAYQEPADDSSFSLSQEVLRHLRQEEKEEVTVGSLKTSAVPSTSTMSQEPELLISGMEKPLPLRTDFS
- TEST: THP-1-Dual KI-hSTING-R232 reporter cell line assay
- CONDITION_DETAILS: 24 h incubation, luminescence, normalized to ML RR-S2 CDA 40 μM; read-out: EC50 THP-1 Dual KI-hSTING-R232 cells
OBSERVATION_TYPE: log10(EC50) (log10 of the value in µM)

molecule="Cc1cccc2sc(C(=O)O)c(-c3nc4cc(C(N)=O)ccc4n3CCn3c(-c4c(C(=O)O)sc5cccc(C)c45)nc4cc(C(N)=O)ccc43)c12 (single isomer, unassigned) [Example 15.1]" observation_type=log10(EC50) recorded_value=0.00
molecule="NC(=O)c1ccc2c(c1)nc(-c1c(C(=O)O)sc3c(F)ccc(Br)c13)n2CCn1c(-c2c(C(=O)O)sc3c(F)ccc(Br)c23)nc2cc(C(N)=O)ccc21 (single isomer, unassigned) [Example 20.2]" observation_type=log10(EC50) recorded_value=0.76
molecule="COc1cccc2sc(C(=O)O)c(-c3nc4cc(C(N)=O)ccc4n3CCn3c(-c4c(C(=O)O)sc5cccc(OC)c45)nc4cc(C(N)=O)ccc43)c12 (single isomer, unassigned) [Example 5.2]" observation_type=log10(EC50) recorded_value=-0.31
molecule="NC(=O)c1ccc2c(c1)nc(-c1c(C(=O)O)sc3cccc(Br)c13)n2CCn1c(-c2c(C(=O)O)sc3cccc(Br)c23)nc2cc(C(N)=O)ccc21 (single isomer, unassigned) [Example 11.2]" observation_type=log10(EC50) recorded_value=0.45
molecule="COc1cccc2sc(C(=O)O)c(-c3nc4cc(C(N)=O)ccc4n3CCn3c(-c4c(C(=O)O)sc5cccc(OC)c45)nc4cc(C(N)=O)ccc43)c12 (single isomer, unassigned) [Example 5.1]" observation_type=log10(EC50) recorded_value=1.13

Data provenance is patent US12384801B2.
